Reference for the values: patent US12595251B2

MIC of AB with Compound C (5 μg/ml) values by entry
- System: NDM-1 over-expressing E. coli
- ASSAY_COMMENT: microbe, parasite or virus in culture
- Format: cell-based, Escherichia coli
- CONDITION_INFO: antibiotic plus Compound C 5 μg/ml

[
  {
    "SMILES_STRUCTURE": "CC[C@H]1OC(=O)[C@H](C)[C@@H](O[C@H]2C[C@@](C)(OC)[C@@H](O)[C@H](C)O2)[C@H](C)[C@@H](O[C@@H]2O[C@H](C)C[C@H](N(C)C)[C@H]2O)[C@](C)(OC)C[C@@H](C)C(=O)[C@H](C)[C@@H](O)[C@]1(C)O",
    "MIC of AB with Compound C (5 μg/ml) [µg/mL]": 0.4
  },
  {
    "SMILES_STRUCTURE": "N[C@@H]1[C@H]2CN(c3nc4c(cc3F)c(=O)c(C(=O)O)cn4-c3ccc(F)cc3F)C[C@@H]12",
    "MIC of AB with Compound C (5 μg/ml) [µg/mL]": 0.0008
  },
  {
    "SMILES_STRUCTURE": "O=C(N[C@H](CO)[C@H](O)c1ccc([N+](=O)[O-])cc1)C(Cl)Cl",
    "MIC of AB with Compound C (5 μg/ml) [µg/mL]": 0.8
  },
  {
    "SMILES_STRUCTURE": "CO[C@H]1/C=C/O[C@@]2(C)Oc3c(C)c(O)c4c(O)c(c(/C=N/N5CCN(C)CC5)c(O)c4c3C2=O)NC(=O)/C(C)=C\\C=C\\[C@H](C)[C@H](O)[C@@H](C)[C@@H](O)[C@@H](C)[C@H](OC(C)=O)[C@@H]1C",
    "MIC of AB with Compound C (5 μg/ml) [µg/mL]": 0.019
  },
  {
    "SMILES_STRUCTURE": "CCC[C@@H]1C[C@@H](C(=O)N[C@@H]([C@H]2O[C@H](SC)[C@H](O)[C@@H](O)[C@H]2O)[C@H](C)Cl)N(C)C1",
    "MIC of AB with Compound C (5 μg/ml) [µg/mL]": 4
  }
]
